Numbers sourced from patent US20260007613A1.

Test system: 293T cells
Test: Cell survival rate determination (CCK-8)
Type: cell-based
Conditions: difference of survival rates; comparator YK-309
Exercise: for every item that follows, state its recorded cell survival rate higher than YK-309.
Answers are plain numbers, in %.

Some compounds with known cell survival rate higher than YK-309 results, for comparison:
* CCCCCCC(CCCCCC)CCOC(=O)CCCCCCN(CCCCCCC(=O)OCCC(CCCCCC)CCCCCC)C[C@H](O)CN(CCO)CCO | 43.60
* CCCCCCCCC(CCCCCCCC)OC(=O)CCCCCN(CCCCCC(=O)OC(CCCCCCCC)CCCCCCCC)C[C@H](O)CN(CCO)CCO | 43.95
* CCCCCCCCC(CCCCCCCC)COC(=O)CCCCCN(CCCCCC(=O)OCC(CCCCCCCC)CCCCCCCC)C[C@H](O)CN(CC)CCO | 45.35
* CCCCCCCCCCCOC(=O)CCCCCN(CCCC(=O)OCCCC(CCCCCCCCCC)CCCCCCCCCC)C[C@H](O)CN(CC)CCO | 50.49

Now take the following compound into account.
In plain terms, CCCCCCCCC(CCCCCCCC)COC(=O)CCCCCN(CCCCCC(=O)OCC(CCCCCCCC)CCCCCCCC)C[C@H](O)CN(C)CCO has a documented cell survival rate higher than YK-309 of 50.57

====

Test system: 293T cells
Experiment: Cell survival rate determination (CCK-8)
Assay type: cell-based
Conditions: difference of survival rates; comparator YK-316
OUTCOME MEASURE: cell survival rate higher than YK-316 (%)
Numbers only, in %.

* CCCCCCCCC(CCCCCCCC)COC(=O)CCCCCN(CCCCCC(=O)OCC(CCCCCCCC)CCCCCCCC)C[C@H](O)CN(CC)CCO [YK-312] | 6.43
* CCCCCCCCCCCOC(=O)CCCCCN(CCCC(=O)OCCCC(CCCCCCCCCC)CCCCCCCCCC)C[C@H](O)CN(CC)CCO [YK-310] | 11.57

Batch request: cell survival rate higher than YK-316 per item, same order as input.
1. CCCCCCCCC(CCCCCCCC)OC(=O)CCCCCN(CCCCCC(=O)OC(CCCCCCCC)CCCCCCCC)C[C@H](O)CN(CCO)CCO [YK-318]
2. CCCCCCCCC(CCCCCCCC)COC(=O)CCCCCN(CCCCCC(=O)OCC(CCCCCCCC)CCCCCCCC)C[C@H](O)CN(C)CCO [YK-305]
3. CCCCCCC(CCCCCC)CCOC(=O)CCCCCCN(CCCCCCC(=O)OCCC(CCCCCC)CCCCCC)C[C@H](O)CN(CCO)CCO [YK-319]

Ans:
1. 5.03
2. 11.65
3. 4.68

====

System: 293T cells
Test: Fluorescent detection of Fluc-mRNA (cell transfection efficiency of LNP formulations)
Format: cell-based
Conditions: RLU of YK-319 / RLU of the lipid of the line; Tables 5, 7, 11
Exercise: state measured Multiples (YK-319) for each of the compounds provided.

* CCCCCCCCC(CCCCCCCC)OC(=O)CCCCCCCN(CCCCCCCC(=O)OC(CCCCCCCC)CCCCCCCC)C[C@H](O)CN(CCO)CCO | 9.05

Would you mind giving Multiples (YK-319) for every compound in the list below?
1. CCCCCCC(CCCCCC)CCOC(=O)CCCCCN(CCCCCC(=O)OCCC(CCCCCC)CCCCCC)C[C@H](O)CN(C)CCO
2. CCCCCCCCCCCOC(=O)CCCCCN(CCCC(=O)OCCCC(CCCCCCCCCC)CCCCCCCCCC)C[C@H](O)CN(C)CCO
3. CCCCCCC(CCCCCC)CCOC(=O)CCCCCN(CCCCCC(=O)OCCC(CCCCCC)CCCCCC)C[C@H](O)CN(CCO)CCO

Ans:
[11.14, 39.07, 6.79]

====

Tested on: 293T cells
Test: Fluorescent detection of Fluc-mRNA (cell transfection efficiency of LNP formulations)
Assay type: cell-based
Details: RLU of YK-312 / RLU of the lipid of the line
OUTCOME MEASURE: Multiples (YK-312)
Numbers only.

Before answering, review these 3 worked examples.
• CCCCCCCCC(CCCCCCCC)OC(=O)CCCCCN(CCCCCC(=O)OC(CCCCCCCC)CCCCCCCC)C[C@H](O)CN(CCO)CCO [YK-318] = 1.80
• CCCCCCCCC(CCCCCC)C(=O)OCCCCCCN(CCCCO)CCCCCCOC(=O)C(CCCCCC)CCCCCCCC (centres unmarked) [ALC-0315, reference compound] = 9.91
• CCCCCCCCCCOC(=O)CCCN(CCO)CCCCCC(=O)OCC(CCCCCCCC)CCCCCCCC [YK-009, reference compound] = 3.94

Return reported Multiples (YK-312) values for all items listed beneath this line.
1. CCCCCCCCC(CCCCCCCC)OC(=O)CCCCCN(CCCCCC(=O)OC(CCCCCCCC)CCCCCCCC)C[C@H](O)CN(CC)CCO [YK-313]
2. CCCCCCCCCCCOC(=O)CCCCCN(CCCCCC(=O)OCCCCCCCCCCC)C[C@H](O)CN(C)CCO [YK-304]
3. CCCCCCC(CCCCCC)CCOC(=O)CCCCCCN(CCCCCCC(=O)OCCC(CCCCCC)CCCCCC)C[C@H](O)CN(CCO)CCO [YK-319]
4. CCCCCCCCCCC(CCCCCCCCCC)CCCOC(=O)CCCN(CCCC(=O)OCCCC(CCCCCCCCCC)CCCCCCCCCC)C[C@H](O)CN(C)CCO [YK-307]
5. CCCCCCCCCCCOC(=O)CCCCCN(CCCC(=O)OCCCC(CCCCCCCCCC)CCCCCCCCCC)C[C@H](O)CN(C)CCO [YK-303]
6. CCCCCCCCC(CCCCCCCC)COC(=O)CCCCCN(CCCCCC(=O)OCC(CCCCCCCC)CCCCCCCC)C[C@H](O)CN(CC)CCO [YK-312]
7. CCCCCCCCC(CCCCCCCC)COC(=O)CCCCCN(CCCCCC(=O)OCC(CCCCCCCC)CCCCCCCC)C[C@H](O)CN(CCO)CCO [YK-316]
8. CCCCCCCCC(CCCCCCCC)OC(=O)CCCCCCCN(CCCCCCCC(=O)OC(CCCCCCCC)CCCCCCCC)C[C@H](O)CN(CCO)CCO [YK-320]

Ans:
1. 23.25
2. 974.01
3. 0.82
4. 4.42
5. 32.17
6. 1.00
7. 4.19
8. 7.45

Working through the 3 compounds below one at a time, give Multiples (YK-312) for each.
1. CCCCCCCCCCOC(=O)CCCN(CCCCCC(=O)OCCC(CCCCCC)CCCCCC)C[C@H](O)CN(CC)CCO [YK-309]
2. CCCCCCCCCCC(CCCCCCCCCC)CCCOC(=O)CCCN(CCCC(=O)OCCCC(CCCCCCCCCC)CCCCCCCCCC)C[C@H](O)CN(CCO)CCO [YK-321]
3. CCCCCCCCCCCCC(O)CN(C)CCCCCC(=O)OCC(CCCCCC)CCCCCCCC (centres unmarked) [HHMA, reference compound]

Ans:
160.71
14.36
10.04

====

System: 293T cells
Experiment: Fluorescent detection of Fluc-mRNA (cell transfection efficiency of LNP formulations)
Assay type: cell-based
Settings: RLU of YK-319 / RLU of the lipid of the line; Tables 5, 7, 11
OUTCOME MEASURE: Multiples (YK-319)
Give bare numbers.

Illustrative cases are given below, each with its answer.
• CCCCCCCCC(CCCCCCCC)OC(=O)CCCCCN(CCCCCC(=O)OC(CCCCCCCC)CCCCCCCC)C[C@H](O)CN(CCO)CCO = 2.19
• CCCCCCCCCCOC(=O)CCCN(CCCCCC(=O)OCC(CCCCCCCC)CCCCCCCC)C[C@H](O)CN(C)CCO = 29.04
• CCCCCCCCC(CCCCCCCC)COC(=O)CCCCCN(CCCCCC(=O)OCC(CCCCCCCC)CCCCCCCC)C[C@H](O)CN(CC)CCO = 1.21

Attention now turns to another entry.
Measured Multiples (YK-319), CCCCCCCCCCCOC(=O)CCCCCN(CCCCCC(=O)OCCCCCCCCCCC)C[C@H](O)CN(C)CCO : 1182.82

====

Test: Particle size and polydispersity index (PDI) of lipid nanoparticles by dynamic light scattering
Format: physicochemical
Conditions: LNP formulation prepared from the cationic lipid, 25° C.
OUTCOME MEASURE: Particle size (nm)
Give bare numbers, in nm.

Check out these entries, answers already filled in.
- CCCCCCCCCCCOC(=O)CCCCCN(CCO)CCCCCCCC(=O)OC(CCCCCCCC)CCCCCCCC [SM-102, reference compound]: 177
- CCCCCCCCCCOC(=O)CCCN(CCO)CCCCCC(=O)OCC(CCCCCCCC)CCCCCCCC [YK-009, reference compound]: 192
- CCCCCCCCCCC(CCCCCCCCCC)CCCOC(=O)CCCN(CCCC(=O)OCCCC(CCCCCCCCCC)CCCCCCCCCC)C[C@H](O)CN(C)CCO [YK-307]: 210
- CCCCCCCCC(CCCCCCCC)OC(=O)CCCCCN(CCCCCC(=O)OC(CCCCCCCC)CCCCCCCC)C[C@H](O)CN(CCO)CCO [YK-318]: 173
- CCCCCCCCCCCCC(O)CN(C)CCCCCC(=O)OCC(CCCCCC)CCCCCCCC (stereo not shown) [HHMA, reference compound]: 150

Would you mind listing Particle size (nm) for each of the following compounds?
1. CCCCCCCCCCC(CCCCCCCCCC)CCCOC(=O)CCCN(CCCC(=O)OCCCC(CCCCCCCCCC)CCCCCCCCCC)C[C@H](O)CN(CCO)CCO [YK-321]
2. CCCCCCCCC(CCCCCCCC)COC(=O)CCCCCN(CCCCCC(=O)OCC(CCCCCCCC)CCCCCCCC)C[C@H](O)CN(C)CCO [YK-305]

Ans:
1. 182
2. 191
